# Test system: SR leukemia
# assay procedure: NCI tumour cell line growth inhibition, 48 h
measure: TGI (nM)
Just the number in nM, nothing appended.

C1=C(CC2=C[P+](c3ccccc3)(c3ccccc3)C=C(c3ccccc3)O2)OC(c2ccccc2)=C[P+]1(c1ccccc1)c1ccccc1 : 538
CC1=NN(c2ccccc2)C2(C1)C(Cl)C(=O)N2c1nc2ccccc2s1 (centres undefined) : 80000

INPUT: Find the measured TGI: item Nc1ncc(-c2cnn(CCO)c2)c2scc(-c3ccc(NC(=O)Nc4cccc(F)c4)cc3)c12 , target or system SR leukemia.
OUTPUT: 1260

###

# Test system: MCF7 breast
# assay procedure: NCI tumour cell line growth inhibition, 48 h; in the data active = GI50 below about 0.43 µM; inactive = the rest
Answer with one of the outcomes active, inactive

COc1ccc(OC)c(/C=C/C(=O)N/N=C/c2ccc(Cl)cc2)c1 : active
COc1cc(OC)c(/C=C/C(=O)c2c(OC)cccc2OC)c(OC)c1 : active
NC(=S)N/N=C/c1ccc(OC(=O)COc2ccc(Cl)cc2)cn1 : inactive
CC(=O)OC1Oc2ccccc2-c2oc(=O)c(-c3cc4ccc(N(C)C)cc4oc3=O)cc21 (stereo not drawn) : inactive
CCOC(=O)Sc1ncnc2nc[nH]c12 : inactive

INPUT: Recorded call for NC(N)=NCCCn1c2c(c3ccccc3c1=O)C(=O)c1ccccc1-2 ?
OUTPUT: inactive

INPUT: Recorded call for COc1ccc(C(=O)c2cc(C)c(OC)c(C)c2)c(OC)c1N(C(=O)C(Cl)Cl)C(=O)C(Cl)Cl ?
OUTPUT: active

INPUT: Recorded call for COc1cc(NC(=O)c2cc(O)c(CC=C(C)C)c(O)c2)cc2c1O[C@]1(C)CC[C@@H](O)C(C)(C)[C@H]1C2 ?
OUTPUT: inactive

###

# System: SNB-75 CNS
# assay procedure: NCI tumour cell line growth inhibition, 48 h; in the data active = GI50 below about 0.43 µM; inactive = the rest
Answer with one of the outcomes active, inactive

INPUT: Recorded call for O=C(CCl)Nc1ccc(Cl)cc1 ?
OUTPUT: inactive

###

TGI by entry:
# Test system: DLD-1 colon
# assay procedure: NCI tumour cell line growth inhibition, 48 h
Where a SMILES comes first, the peptide text is derived from it. [ ]: non-standard residue; d: D form. Phe(4-Cl) = N[CH](Cc1ccc(Cl)cc1)C(=O)O

COc1ccc(C(C)c2cc3c(cc2OC)OCO3)cc1 (stereo not drawn) : > 100 µM
C[N+](C)(C)CC1CCCC(C[N+](C)(C)C)C1=O (stereo not drawn) : 0.386 µM
Cc1[nH]c(=O)[nH]c(=O)c1/C=C/C(=O)NC(CO)CC(C)C (stereo not drawn) : > 375 µM
CCN(CC)C(=O)c1cc(OC(C)C)ccc1-c1c(C)cc(OC(C)C)c(OC)c1OC : > 100 µM
CC(O)C(NC(=O)C(Cc1ccccc1)NC(=O)C(NC(=O)C(CCCCN)NC(=O)C(Cc1c[nH]c2ccccc12)NC(=O)C(Cc1ccc(O)cc1)NC(=O)C(Cc1ccc(Cl)cc1)NC(=O)C(N)Cc1ccccc1)C(C)O)C(N)=O (stereo not drawn) (H-F[Phe(4-Cl)]YWKTFT-NH2; configuration not given here) : 59.5 µM

INPUT: # query: TGI of entry O=C(O)CP(=S)(S)c1ccccc1 (stereo not drawn)
OUTPUT: > 100 µM

INPUT: # query: TGI of entry NCC(Cl)C(O)c1cnc(N)[nH]1 (stereo not drawn)
OUTPUT: 29.2 µM

INPUT: # query: TGI of entry C=CCCCCCCCCC(=O)NS(=O)(=O)c1ccccc1
OUTPUT: > 100 µM

INPUT: # query: TGI of entry COc1ccc2c(c1)CCC1C3(CCCC21C)OCCO3 (stereo not drawn)
OUTPUT: 34.5 µM

INPUT: # query: TGI of entry COC(=O)c1cc(Br)c(Br)n1C
OUTPUT: > 100 µM

INPUT: # query: TGI of entry CC[O-].CC[O-].O=C1c2ccccc2C(=O)c2c(O)ccc([O-])c21.O=C1c2ccccc2C(=O)c2c(O)ccc([O-])c21.[Ti+4]
OUTPUT: > 100 µM

INPUT: # query: TGI of entry Nc1ccc(/C=C/c2ccnc3ccccc23)cc1
OUTPUT: > 100 µM

INPUT: # query: TGI of entry CC(=O)[CH-]C(=O)c1ccccc1.CC(=O)[CH-]C(=O)c1ccccc1.O=C([O-])c1ccc([O-])cc1.O=C([O-])c1ccc([O-])cc1.[Ti+4]
OUTPUT: > 100 µM

INPUT: # query: TGI of entry CC1=C2C(=O)O[C@@H](c3ccoc3)[C@]2(C)CCC1
OUTPUT: > 100 µM

###

# System: OVCAR-3 ovarian
# assay procedure: NCI tumour cell line growth inhibition, 48 h
TGI by entry:
Just the number in µM, nothing appended.

CN(C)CCn1c(=O)c2ccc(NCCNCCO)c3c(=O)c4ccccc4n(c1=O)c23 : 5.66

INPUT: # query: TGI of entry CC(C)OC(=O)c1ccc(NCC2=CC(=O)C=CC2=O)cc1
OUTPUT: 21.6

###

# Tested on: HCT-15 colon
# assay procedure: NCI tumour cell line growth inhibition, 48 h
measure: TGI

O=c1cccccc1NCCCNc1cccccc1=O : > 100 µM
COc1ccc(C2C(C(=O)O)=C(CO)Oc3cc4c(cc32)OCO4)cc1 (stereo unspecified) : > 100 µM
Nc1cc(Cl)cc2cc(Cl)cnc12 : > 100 µM
Cc1ccc(C(=NN=C(N)N)c2ccc(C)cc2)cc1 : 8.86 µM
COc1ccc2c(c1)C(=O)c1c-2n(CCCn2ccnc2)c(=O)c2ccccc12 : 7.72 µM

For the next question, use this compound.
INPUT: # query: TGI of entry C[C@]12CCC(O)CC1=CC[C@@H]1[C@@H]2CC[C@]2(C)C(O)[C@H](n3ccnc3)C[C@@H]12 (stereo partly specified)
OUTPUT: > 100 µM

###

# System: OVCAR-5 ovarian
# assay procedure: NCI tumour cell line growth inhibition, 48 h
measure: TGI

Past entries and their recorded results:
COc1c2c(cc3nc4ccccc4nc13)CCC(C(C)(C)O)C2 (centres undefined) : > 100 µM
NC1=NN(c2ccccc2)C(=O)C1C(=O)CCC(=O)Nc1cccc(C(F)(F)F)c1 (centres undefined) : > 100 µM
NC(=S)N/N=C/c1ccc(OC(=O)COc2ccc(Cl)cc2)cn1 : > 100 µM
CC1=C(C)CC2(CCCCC2=O)S(=O)C1 (centres undefined) : > 100 µM
COc1ccc(-c2cn3ccsc3n2)cc1 : > 100 µM

INPUT: Find the measured TGI: item Clc1nc(Cl)c2ncn(Cc3cccc(COc4cccc(OCc5cccc(Cn6cnc7c(Cl)nc(Cl)nc76)c5)c4)c3)c2n1 , target or system OVCAR-5 ovarian.
OUTPUT: > 100 µM

INPUT: Find the measured TGI: item CC[C@]12C=CCN3CC[C@@]4(c5cc(Br)c(OC)c([N+](=O)[O-])c5N(C)[C@H]4[C@@](O)(C(=O)OC)[C@@H]1OC(C)=O)[C@@H]32 , target or system OVCAR-5 ovarian.
OUTPUT: > 100 µM

###

# System: SNB-75 CNS
# assay procedure: NCI tumour cell line growth inhibition, 48 h
measure: TGI

CCOC(=O)c1cc(/C(=N\O)c2cc(OC)c(OC)c(OC)c2)n2cc(C)cc(C)c12 : 4.48 µM
O=C(O)c1cccc(Nc2c(C(=O)O)cccc2[N+](=O)[O-])c1 : > 100 µM
CC[O-].CC[O-].O=C1c2ccccc2C(=O)c2c(O)ccc([O-])c21.O=C1c2ccccc2C(=O)c2c(O)ccc([O-])c21.[Ti+4] : > 100 µM

For the next question, use this compound.
INPUT: # query: TGI of entry COc1cc2c(cc1OCCCNC(=O)c1cc3ccccc3[nH]1)N=C[C@@H]1CCCN1C2=O
OUTPUT: 2.01 µM

###

# Tested on: 786-0 renal
# assay procedure: NCI tumour cell line growth inhibition, 48 h
measure: TGI

Past entries and their recorded results:
COc1cc2c(/C=C3/C(=O)Nc4ccc(O)cc43)c(Cl)n(Cc3ccccc3)c2cc1C : 3.28 µM
COc1ccc(NC(=S)Nc2cc(C)ccn2)cc1 : > 100 µM
CCOC(=O)c1cc(/C(=N\O)c2cc(OC)c(OC)c(OC)c2)n2cc(C)cc(C)c12 : 10 µM
CCN1C(=O)CNc2ncc(-c3ccc(-c4ncn[nH]4)nc3C)nc21 : 4.35 µM
O=C1c2ccccc2-c2c1c1ccccc1c(=O)n2Cc1ccccc1 : > 100 µM
C[C@]12CCC(O)CC1=CC[C@@H]1[C@@H]2CC[C@]2(C)C(O)[C@H](n3ccnc3)C[C@@H]12 (some centres undefined) : > 100 µM
N#Cc1nc(C2OC(COC(=O)c3ccccc3)C(OC(=O)c3ccccc3)C2OC(=O)c2ccccc2)oc1N (centres undefined) : > 100 µM
Cc1ccc(-c2c(C#N)c(-c3ccccc3)n(NS(=O)(=O)c3ccc(C)cc3)c(=O)c2C#N)cc1 : > 100 µM

INPUT: # query: TGI of entry O=C(CP(=O)(c1ccccc1)c1ccccc1)c1cccc(C(=O)CP(=O)(c2ccccc2)c2ccccc2)c1
OUTPUT: > 100 µM
